Biological target: GCN2 (Homo sapiens)
Sequence (Q9P2K8 whole entry): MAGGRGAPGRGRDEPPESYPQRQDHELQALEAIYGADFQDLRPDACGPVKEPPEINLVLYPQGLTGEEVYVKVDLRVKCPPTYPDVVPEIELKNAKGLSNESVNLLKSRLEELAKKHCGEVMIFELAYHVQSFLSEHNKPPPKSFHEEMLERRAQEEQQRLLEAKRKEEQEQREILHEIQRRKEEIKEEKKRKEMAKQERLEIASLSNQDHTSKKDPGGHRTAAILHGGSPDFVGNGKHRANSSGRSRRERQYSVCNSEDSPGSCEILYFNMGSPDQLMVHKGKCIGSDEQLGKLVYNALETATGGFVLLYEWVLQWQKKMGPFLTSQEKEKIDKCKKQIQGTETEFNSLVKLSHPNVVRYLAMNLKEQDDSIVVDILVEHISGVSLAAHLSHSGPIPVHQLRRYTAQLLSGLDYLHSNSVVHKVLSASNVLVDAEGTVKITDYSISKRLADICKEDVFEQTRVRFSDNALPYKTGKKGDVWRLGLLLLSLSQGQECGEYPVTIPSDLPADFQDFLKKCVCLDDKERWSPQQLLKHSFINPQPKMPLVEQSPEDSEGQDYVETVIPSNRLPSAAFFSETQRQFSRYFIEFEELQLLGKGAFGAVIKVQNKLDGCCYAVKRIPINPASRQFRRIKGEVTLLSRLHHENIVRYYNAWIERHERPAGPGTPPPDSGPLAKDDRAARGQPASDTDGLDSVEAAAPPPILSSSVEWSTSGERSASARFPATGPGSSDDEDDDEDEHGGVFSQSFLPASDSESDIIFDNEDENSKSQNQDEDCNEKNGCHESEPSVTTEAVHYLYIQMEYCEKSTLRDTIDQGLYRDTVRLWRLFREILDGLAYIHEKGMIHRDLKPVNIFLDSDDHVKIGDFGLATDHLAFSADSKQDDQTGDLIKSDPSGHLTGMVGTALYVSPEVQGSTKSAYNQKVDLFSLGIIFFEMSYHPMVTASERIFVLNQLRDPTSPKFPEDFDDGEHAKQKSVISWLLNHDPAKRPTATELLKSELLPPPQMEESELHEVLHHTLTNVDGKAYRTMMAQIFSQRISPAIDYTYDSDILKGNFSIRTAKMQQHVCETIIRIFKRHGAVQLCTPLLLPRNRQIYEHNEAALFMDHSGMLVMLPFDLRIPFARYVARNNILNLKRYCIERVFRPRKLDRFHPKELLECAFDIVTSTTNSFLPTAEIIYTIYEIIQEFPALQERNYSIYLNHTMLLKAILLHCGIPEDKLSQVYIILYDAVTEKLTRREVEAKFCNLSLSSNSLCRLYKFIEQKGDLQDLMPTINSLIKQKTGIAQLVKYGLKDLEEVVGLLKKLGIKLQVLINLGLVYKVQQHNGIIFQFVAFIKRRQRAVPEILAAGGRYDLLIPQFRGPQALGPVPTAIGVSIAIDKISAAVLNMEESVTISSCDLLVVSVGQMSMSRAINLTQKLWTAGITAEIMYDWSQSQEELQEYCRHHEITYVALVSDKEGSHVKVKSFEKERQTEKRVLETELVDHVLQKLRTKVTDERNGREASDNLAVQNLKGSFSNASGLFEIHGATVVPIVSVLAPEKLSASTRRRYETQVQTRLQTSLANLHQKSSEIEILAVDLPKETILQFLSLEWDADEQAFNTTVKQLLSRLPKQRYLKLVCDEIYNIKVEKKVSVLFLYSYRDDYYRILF
Experiment: GCN2 enzymatic endpoint assay: phosphorylation of GFP-eIF2α measured by TR-FRET (Lanthascreen)
Assay type: biochemical
Settings: tested as described in Example 77; compound and/or hydrochloride, dihydrochloride or trifluoroacetic acid salt; read-out: IC 50 Activity
Experimental: The Enzymatic assay was run as an endpoint assay to quantify the activity of the serine/threonine GCN2 kinase by way of measuring phosphorylation of its natural substrate, eiF2α. The enzymatic reaction was initiated by incubating with 2 μM ATP and 80 nM of GFP labeled eiF2a substrate at room temperature and then stopped after 90 minutes with EDTA. The amount of phosphorylated eIF2α is determined by TR-FRET (Lanthascreen). […]
pIC50: −log10 of the molar value.
Entries and their pIC50

Looking up "CC1(CNC(=O)[C@@H]2CC[C@@H](Nc3ncc4c(Br)nn(-c5ccc6ncccc6c5)c4n3)C2)COC1" , I found its pIC50 recorded as 6.30 to 6.70

Value of measured pIC50 for the entry "CNC(=O)[C@]1(C)CC[C@@H](Nc2ncc3c(Br)nn(-c4cc(CNCCC#N)cc(OC(F)(F)F)c4)c3n2)C1" : 6.70 to 7.60

Record O=C([C@@H]1CC[C@@H](Nc2ncc3c(Br)nn(-c4cc(F)c5ncccc5c4)c3n2)C1)N1CCNC(C(F)(F)F)C1 (some centres unmarked) , field pIC50: 6.70 to 7.60

Looking up "CNC(=O)[C@]1(C)CC[C@@H](Nc2ncc3c(Br)nn(-c4ccc5c(c4)C(=O)NC5=O)c3n2)C1" , I found its pIC50 recorded as 6.70 to 7.60
